This collection of values is drawn from the supplement of paper PMC10065799.

Entries and their phosphorylation enrichment values follow.
target: EPHB1 (UniProt P54762); test: phosphorylation enrichment, bacterial display (enrichment ratio); higher = better substrate or ligand; peptides without Tyr show the background;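 further: 11-residue human phosphosite peptides and single-mutation variants displayed on the E. coli surface, counted by deep sequencing, each peptide's frequency after selection divided by its frequency in the unselected input library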;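 further: frequency after pTyr selection over input frequency; kinase dosed for 20-30% of maximal phosphorylation in three min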
Sequence (P54762 whole entry, looked up): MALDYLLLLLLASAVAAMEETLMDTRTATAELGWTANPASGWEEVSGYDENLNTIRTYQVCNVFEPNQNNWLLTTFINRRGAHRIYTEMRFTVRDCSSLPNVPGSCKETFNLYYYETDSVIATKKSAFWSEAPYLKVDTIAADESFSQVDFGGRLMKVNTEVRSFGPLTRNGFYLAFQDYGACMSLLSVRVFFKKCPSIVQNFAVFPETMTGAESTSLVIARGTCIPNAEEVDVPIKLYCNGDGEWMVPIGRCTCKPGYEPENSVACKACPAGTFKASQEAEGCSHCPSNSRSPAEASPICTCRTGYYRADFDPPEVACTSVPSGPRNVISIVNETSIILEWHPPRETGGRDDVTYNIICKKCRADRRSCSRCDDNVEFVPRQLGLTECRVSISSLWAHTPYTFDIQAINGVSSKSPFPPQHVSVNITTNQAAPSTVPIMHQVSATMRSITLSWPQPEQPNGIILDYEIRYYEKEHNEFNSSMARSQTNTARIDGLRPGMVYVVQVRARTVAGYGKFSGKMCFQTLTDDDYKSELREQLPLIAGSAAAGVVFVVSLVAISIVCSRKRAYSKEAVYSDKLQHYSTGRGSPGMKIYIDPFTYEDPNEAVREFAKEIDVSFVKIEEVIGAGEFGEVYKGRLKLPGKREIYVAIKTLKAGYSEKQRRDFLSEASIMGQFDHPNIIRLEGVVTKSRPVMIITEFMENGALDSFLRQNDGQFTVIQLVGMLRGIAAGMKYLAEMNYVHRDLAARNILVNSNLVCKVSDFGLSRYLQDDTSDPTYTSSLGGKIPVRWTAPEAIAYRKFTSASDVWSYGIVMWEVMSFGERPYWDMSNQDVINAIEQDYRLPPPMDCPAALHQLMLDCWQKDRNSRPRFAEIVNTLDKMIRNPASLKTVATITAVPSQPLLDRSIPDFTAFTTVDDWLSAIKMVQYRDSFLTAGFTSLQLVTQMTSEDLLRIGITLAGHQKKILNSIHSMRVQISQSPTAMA
Form rule: numeric answer, no unit written next to it.

Would you mind telling me what phosphorylation enrichment value was observed for RRVLVYGDRGA [QDPR_Y16_G18D] ?
0.34

Need phosphorylation enrichment of AYRHGYFDEEM [PLEC_Y2971_R2969H] , thanks.
0.664

Which value of phosphorylation enrichment has been reported for LGRKLYSIAAP [ABHD12_Y345] in the records?
0.664

Recorded phosphorylation enrichment of KFSNQYKATIG [RAB7A_Y37] , please.
0.47

# query: phosphorylation enrichment of entry RRYVYYYSYLL [PTEN_Y177]
0.672

---

molecular target: MERTK (UniProt Q12866); assay: phosphorylation enrichment, bacterial display (enrichment ratio); higher = better substrate or ligand; peptides without Tyr show the background
Sequence (Q12866 whole entry, looked up): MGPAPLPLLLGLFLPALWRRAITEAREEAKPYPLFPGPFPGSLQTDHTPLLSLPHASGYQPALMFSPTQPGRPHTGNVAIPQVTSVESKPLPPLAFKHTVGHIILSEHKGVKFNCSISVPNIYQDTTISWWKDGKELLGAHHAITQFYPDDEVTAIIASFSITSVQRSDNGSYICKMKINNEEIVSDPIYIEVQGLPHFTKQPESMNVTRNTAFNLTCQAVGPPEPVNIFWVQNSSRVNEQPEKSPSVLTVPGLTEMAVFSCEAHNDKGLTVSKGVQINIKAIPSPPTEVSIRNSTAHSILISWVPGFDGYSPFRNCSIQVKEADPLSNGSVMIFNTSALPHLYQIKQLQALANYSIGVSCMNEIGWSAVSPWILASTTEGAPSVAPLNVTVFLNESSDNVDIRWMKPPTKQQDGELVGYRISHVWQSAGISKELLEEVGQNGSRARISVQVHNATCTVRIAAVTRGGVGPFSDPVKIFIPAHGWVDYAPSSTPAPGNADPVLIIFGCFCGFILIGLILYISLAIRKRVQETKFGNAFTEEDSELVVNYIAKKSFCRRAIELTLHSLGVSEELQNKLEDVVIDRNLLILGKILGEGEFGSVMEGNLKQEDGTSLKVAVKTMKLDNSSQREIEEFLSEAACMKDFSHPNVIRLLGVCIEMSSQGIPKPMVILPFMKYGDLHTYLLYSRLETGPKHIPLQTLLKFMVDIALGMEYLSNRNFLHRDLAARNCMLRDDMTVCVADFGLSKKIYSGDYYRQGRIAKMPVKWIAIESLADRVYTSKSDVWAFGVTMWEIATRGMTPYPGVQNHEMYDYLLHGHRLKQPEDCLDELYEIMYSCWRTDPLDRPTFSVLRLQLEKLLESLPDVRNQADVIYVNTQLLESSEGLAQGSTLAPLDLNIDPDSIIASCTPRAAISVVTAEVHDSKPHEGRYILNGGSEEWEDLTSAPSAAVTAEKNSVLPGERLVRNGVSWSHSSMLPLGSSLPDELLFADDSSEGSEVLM
ASSAY ENDPOINT: phosphorylation enrichment
I only need the number, thanks.

Sample answers from the record:
RESIDUE CODES: FQHLRYIKQLG [SAMHD1_Y146_R143H]
RECORDED RESULT: 0.363

RESIDUE CODES: CVVVPYEPPEV [TP53_Y220_S215C]
RECORDED RESULT: 0.462

Give its phosphorylation enrichment value. Item: SIKDKYLTALF [KCNH2_Y611_V612L_YF]
0.408

# input sequence: KKYPDYIQSAM [SGMS2_Y59_I62S] ; wanted: its phosphorylation enrichment
0.392

What value of phosphorylation enrichment has been recorded for this entry: GLTSTYVGIRK [ROBO1_Y932_A933V]
0.463

Quick check: phosphorylation enrichment of YCVDCYKNFVA [FHL1_Y213] ?
0.722

Given the sequence SGGSSYGSGGC [KRT1_Y532_G537C] , what is its reported phosphorylation enrichment?
0.431

---

biological target: Fes (UniProt P07332); assay: phosphorylation enrichment, bacterial display (enrichment ratio); higher = better substrate or ligand; peptides without Tyr show the background
Sequence (P07332 whole entry, looked up): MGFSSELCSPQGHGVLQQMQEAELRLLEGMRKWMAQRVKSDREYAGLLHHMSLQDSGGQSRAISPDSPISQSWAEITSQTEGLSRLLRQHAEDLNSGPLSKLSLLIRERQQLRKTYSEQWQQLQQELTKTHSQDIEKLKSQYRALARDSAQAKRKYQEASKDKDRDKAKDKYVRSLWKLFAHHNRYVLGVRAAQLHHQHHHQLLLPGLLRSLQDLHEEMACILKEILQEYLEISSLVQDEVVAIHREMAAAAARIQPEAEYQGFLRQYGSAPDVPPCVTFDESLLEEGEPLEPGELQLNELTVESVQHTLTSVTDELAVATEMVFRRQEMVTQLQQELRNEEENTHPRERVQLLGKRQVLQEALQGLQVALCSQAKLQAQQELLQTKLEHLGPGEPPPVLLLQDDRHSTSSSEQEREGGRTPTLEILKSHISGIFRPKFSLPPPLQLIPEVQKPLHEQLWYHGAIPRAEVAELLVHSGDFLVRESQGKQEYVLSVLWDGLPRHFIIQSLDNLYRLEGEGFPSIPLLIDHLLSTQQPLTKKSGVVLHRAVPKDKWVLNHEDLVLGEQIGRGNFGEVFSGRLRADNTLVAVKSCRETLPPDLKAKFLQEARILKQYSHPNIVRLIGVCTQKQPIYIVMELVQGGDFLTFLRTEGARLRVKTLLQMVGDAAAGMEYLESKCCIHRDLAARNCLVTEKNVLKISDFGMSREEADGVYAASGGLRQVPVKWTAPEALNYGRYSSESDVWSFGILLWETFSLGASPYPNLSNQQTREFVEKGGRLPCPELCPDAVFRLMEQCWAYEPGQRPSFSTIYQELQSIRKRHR
Would you mind sorting the entries by phosphorylation enrichment according to these classes? low (below 0.7), intermediate (0.7 to below 1), high (1 or more)

Past entries and their recorded results:
RESIDUE CODES: DRLPSYLDKVR [KRT12_Y139_A137P]
ANSWER LABEL: low

RESIDUE CODES: RLLRGHDQFAF [HLA-B_Y137_YF]
ANSWER LABEL: low

RESIDUE CODES: TPTFPYLLPKS [PLD2_Y580_YF]
ANSWER LABEL: low

RESIDUE CODES: LKGQVDILGRE [ASS1_Y359_Y359D]
ANSWER LABEL: high

RESIDUE CODES: QLCVNYPGGYT [PROS1_Y259]
ANSWER LABEL: high

Sort IKNSGYISRFL [EIF2AK3_Y585_YF] into one of the categories.
low

For VASIFYTLVIP [OR8K3_Y277] , which phosphorylation enrichment bin applies?
high

---

target: EPHB2 (UniProt P29323); assay: phosphorylation enrichment, bacterial display (enrichment ratio); higher = better substrate or ligand; peptides without Tyr show the background
Sequence (P29323 whole entry, looked up): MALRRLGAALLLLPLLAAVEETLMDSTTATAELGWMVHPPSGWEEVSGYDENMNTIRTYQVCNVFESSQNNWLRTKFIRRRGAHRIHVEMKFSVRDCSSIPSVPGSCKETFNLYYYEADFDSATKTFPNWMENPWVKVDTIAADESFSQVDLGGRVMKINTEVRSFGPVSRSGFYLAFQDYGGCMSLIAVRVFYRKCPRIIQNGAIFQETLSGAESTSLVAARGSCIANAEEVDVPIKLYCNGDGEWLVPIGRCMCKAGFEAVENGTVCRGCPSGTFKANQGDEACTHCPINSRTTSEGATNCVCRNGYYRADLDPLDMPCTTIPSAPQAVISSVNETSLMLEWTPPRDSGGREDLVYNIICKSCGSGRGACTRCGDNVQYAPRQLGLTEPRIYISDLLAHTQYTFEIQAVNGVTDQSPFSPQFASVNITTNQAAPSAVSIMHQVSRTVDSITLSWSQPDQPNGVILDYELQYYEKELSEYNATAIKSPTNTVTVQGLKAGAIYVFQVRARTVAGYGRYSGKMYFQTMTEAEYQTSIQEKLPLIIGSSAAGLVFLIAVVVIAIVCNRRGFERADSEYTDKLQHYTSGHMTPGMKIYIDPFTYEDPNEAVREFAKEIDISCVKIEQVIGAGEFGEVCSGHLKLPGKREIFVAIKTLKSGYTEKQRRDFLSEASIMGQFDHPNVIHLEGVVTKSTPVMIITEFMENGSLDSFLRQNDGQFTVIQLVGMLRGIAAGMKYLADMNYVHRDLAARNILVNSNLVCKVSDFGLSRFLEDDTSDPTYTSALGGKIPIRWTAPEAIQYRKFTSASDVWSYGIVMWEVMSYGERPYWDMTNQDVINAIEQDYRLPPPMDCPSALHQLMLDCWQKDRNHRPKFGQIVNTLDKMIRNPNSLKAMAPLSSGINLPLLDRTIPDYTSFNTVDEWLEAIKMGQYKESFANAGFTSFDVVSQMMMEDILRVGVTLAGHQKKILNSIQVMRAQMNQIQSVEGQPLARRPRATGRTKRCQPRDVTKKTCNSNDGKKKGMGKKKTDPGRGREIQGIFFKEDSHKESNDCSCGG
Readings of phosphorylation enrichment for the listed sequences
API note: the answer field is a bare number with no unit suffix.

RESIDUE CODES: LKMLVYMDMSK [LRRC7_Y234_L235M]
phosphorylation enrichment: 0.804
--
RESIDUE CODES: RENGPYFASFP [GDAP2_Y487_T489A_YF]
phosphorylation enrichment: 0.534
--
RESIDUE CODES: FDGKEYDPVEA [MAPRE2_Y167_YF]
phosphorylation enrichment: 0.545
--
RESIDUE CODES: PTKNDYWAMLA [WWOX_Y287]
phosphorylation enrichment: 1.61
--
RESIDUE CODES: AVLVQYYMEHH [PTPN11_Y80_E76V]
phosphorylation enrichment: 1.32

Name the reported phosphorylation enrichment value associated with the sequence MARDIYQASYY [LTK_Y672_R673Q]
3.03

What does the record list as phosphorylation enrichment for ALMGLYHGQVL [HADHA_Y343] ?
0.649

Look up phosphorylation enrichment: RMDGTYACSFT [FLNB_Y704_YF]
0.741

Look up phosphorylation enrichment for this sequence: ELTAKYLNFFQ [P3H4_Y181_YF]
0.479

Return reported phosphorylation enrichment; argument: LNARHYGGLTG [PGAM2_Y92_E89A]
0.3

Any idea what its phosphorylation enrichment is? The sequence is FFCKFYNKSED [RYR1_Y4864_R4861C]
0.601

Requested read-out: phosphorylation enrichment. Entry: LRSRVYEVPVE [SLC26A3_Y756_N753S]
1.03

// query phosphorylation enrichment value for entry GVMLLYYGRYN [ADGRD1_Y85_T82M]
0.761

Please give the measured phosphorylation enrichment for this sequence: TTPYNYSYIFK [RAB14_Y8_A4T]
2.71

// lookup phosphorylation enrichment for FRQNGYIPGSN [PCDHGA1_Y895_V894G_YF]
0.359

Entry VYYGSYSCPYG [NKAP_Y104_R106C] : reported phosphorylation enrichment = ?
3.08

Quick one: phosphorylation enrichment for EAVSIYQFFGQ [CBLC_Y402_H405Y_YF] ?
5.73

Entry PSARTYCFKQE [KLHDC9_Y175_YF] : reported phosphorylation enrichment = ?
0.595

# get_value(readout='phosphorylation enrichment', item= NARGLYFKLHN [GATA2_Y376_C373R_YF] )
0.634

Field request: phosphorylation enrichment | item: HFVDEYDQTIE [KRAS_Y32_P34Q]
1.07

Entry LAVNPYGPPDP : reported phosphorylation enrichment = ?
0.553

For EFKDAYTFAAD [BRDT_Y335_K336T_YF] , what is its reported phosphorylation enrichment?
0.519

Please look up its phosphorylation enrichment: KNEKVYTRHGV [FLOT1_Y56_S52N]
0.33

Quick one: phosphorylation enrichment for ADARMYGVLPR [PLP1_Y207_W212R] ?
0.477

Given the entry HGEAYYSEVKP [PAK5_Y182] , report its measured phosphorylation enrichment.
1.8
